Please provide measured inhibition at 10 µM for the entries that follow.
- Target of assay: CYP3A4 (Homo sapiens, UniProt P08684)
- Sequence (P08684 whole entry): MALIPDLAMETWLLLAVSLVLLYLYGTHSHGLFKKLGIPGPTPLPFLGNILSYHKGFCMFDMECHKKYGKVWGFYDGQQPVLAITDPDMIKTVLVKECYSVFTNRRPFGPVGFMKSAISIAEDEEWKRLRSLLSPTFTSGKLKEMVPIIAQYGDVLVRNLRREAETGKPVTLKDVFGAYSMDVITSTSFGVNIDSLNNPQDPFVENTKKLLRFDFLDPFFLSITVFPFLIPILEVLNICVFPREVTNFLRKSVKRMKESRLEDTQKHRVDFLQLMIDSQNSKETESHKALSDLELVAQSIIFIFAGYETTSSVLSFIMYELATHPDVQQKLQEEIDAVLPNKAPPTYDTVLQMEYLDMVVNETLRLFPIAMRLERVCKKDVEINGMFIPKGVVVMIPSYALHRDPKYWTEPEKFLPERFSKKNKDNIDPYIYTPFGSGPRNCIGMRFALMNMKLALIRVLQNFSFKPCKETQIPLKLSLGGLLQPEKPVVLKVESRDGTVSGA
- Protocol: Inhibition of recombinant human CYP3A4 expressed in baker's yeast-derived microsomes (Sacchrosomes) at 10 uM using dibenzylfluorescein substrate by EROD assay relative to control
- Assay type: ADME
- Test context: probe dibenzylfluorescein
All answers are understood in %, so give the number only.

Return reported inhibition at 10 µM; argument: COc1c(C(=O)CC(=O)c2ccccc2)ccc2occc12
9

Return reported inhibition at 10 µM; argument: CC1=CC(=O)c2c(O)cccc2C1=O
15

Return reported inhibition at 10 µM; argument: COc1ccc2c(c1OC)C(OC)N(C)c1c-2ccc2cc3c(cc12)OCO3 (stereo unspecified)
6

Return reported inhibition at 10 µM; argument: COc1c2ccoc2c(OCC=C(C)C)c2oc(=O)ccc12
12

Return reported inhibition at 10 µM; argument: COc1c2occc2c(OC)c2c(=O)cc(C)oc12
11

Return reported inhibition at 10 µM; argument: Nc1nccc(-c2c[nH]c3ccc(Br)cc23)n1
10

Return reported inhibition at 10 µM; argument: O=C1C=CC(=O)c2c(O)ccc(O)c21
15

Return reported inhibition at 10 µM; argument: COc1c2ccoc2c(OC)c2oc(=O)ccc12
0

Return reported inhibition at 10 µM; argument: O=c1cc(-c2ccccc2)oc2c1ccc1ccccc12
6

Return reported inhibition at 10 µM; argument: COc1ccc(-c2cc(=O)c3c(O)c(OC)c(OC)cc3o2)cc1OC
9

Return reported inhibition at 10 µM; argument: COc1c2ccoc2cc2oc(=O)ccc12
3

###

- Target of assay: CYP2D6 (Homo sapiens)
- Sequence (P10635 whole entry): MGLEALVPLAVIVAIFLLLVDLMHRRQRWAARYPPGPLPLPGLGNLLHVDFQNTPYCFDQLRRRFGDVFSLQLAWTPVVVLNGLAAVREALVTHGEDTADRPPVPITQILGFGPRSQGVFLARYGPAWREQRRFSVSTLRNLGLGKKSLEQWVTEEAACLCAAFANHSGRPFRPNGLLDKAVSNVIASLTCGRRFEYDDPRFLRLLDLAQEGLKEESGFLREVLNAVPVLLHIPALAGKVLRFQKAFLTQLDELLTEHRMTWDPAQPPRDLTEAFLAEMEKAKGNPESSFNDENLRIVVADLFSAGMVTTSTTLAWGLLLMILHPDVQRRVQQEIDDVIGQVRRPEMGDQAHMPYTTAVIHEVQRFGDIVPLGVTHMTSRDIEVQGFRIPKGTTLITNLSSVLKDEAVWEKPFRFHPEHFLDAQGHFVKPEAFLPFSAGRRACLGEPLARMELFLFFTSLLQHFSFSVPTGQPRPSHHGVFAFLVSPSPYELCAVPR
- Protocol: Inhibition of recombinant human CYP2D6 expressed in baker's yeast-derived microsomes (Sacchrosomes) at 10 uM using 7-ethoxy-methyloxy-3-cyanocoumarin substrate by EROD assay relative to control
- Assay type: ADME
- Test context: probe 7-ethoxy-methyloxy-3-cyanocoumarin
Please provide measured inhibition at 10 µM for the entries that follow.
All answers are understood in %, so give the number only.

CYP2D6 (Homo sapiens) / inhibition at 10 µM / COc1ccc2c(c1OC)C(OC)N(C)c1c-2ccc2cc3c(cc12)OCO3 (stereo unspecified) : value?
11

CYP2D6 (Homo sapiens) / inhibition at 10 µM / COc1c(C(=O)CC(=O)c2ccccc2)ccc2occc12 : value?
14

CYP2D6 (Homo sapiens) / inhibition at 10 µM / O=C1C=CC(=O)c2c(O)ccc(O)c21 : value?
5

CYP2D6 (Homo sapiens) / inhibition at 10 µM / COc1ccc(-c2cc(=O)c3c(O)c(OC)c(OC)cc3o2)cc1OC : value?
13

CYP2D6 (Homo sapiens) / inhibition at 10 µM / COc1c2occc2c(OC)c2c(=O)cc(C)oc12 : value?
8

CYP2D6 (Homo sapiens) / inhibition at 10 µM / Nc1nccc(-c2c[nH]c3ccc(Br)cc23)n1 : value?
5

CYP2D6 (Homo sapiens) / inhibition at 10 µM / CC1=CC(=O)c2c(O)cccc2C1=O : value?
10

CYP2D6 (Homo sapiens) / inhibition at 10 µM / COc1c2ccoc2c(OC)c2oc(=O)ccc12 : value?
0

CYP2D6 (Homo sapiens) / inhibition at 10 µM / COc1c2ccoc2cc2oc(=O)ccc12 : value?
9

CYP2D6 (Homo sapiens) / inhibition at 10 µM / COc1c2ccoc2c(OCC=C(C)C)c2oc(=O)ccc12 : value?
20

CYP2D6 (Homo sapiens) / inhibition at 10 µM / O=c1cc(-c2ccccc2)oc2c1ccc1ccccc12 : value?
5

###

Please provide measured inhibition at 10 µM for the entries that follow.
- Target of assay: CYP1A1 (Homo sapiens)
- Sequence (P04798 whole entry): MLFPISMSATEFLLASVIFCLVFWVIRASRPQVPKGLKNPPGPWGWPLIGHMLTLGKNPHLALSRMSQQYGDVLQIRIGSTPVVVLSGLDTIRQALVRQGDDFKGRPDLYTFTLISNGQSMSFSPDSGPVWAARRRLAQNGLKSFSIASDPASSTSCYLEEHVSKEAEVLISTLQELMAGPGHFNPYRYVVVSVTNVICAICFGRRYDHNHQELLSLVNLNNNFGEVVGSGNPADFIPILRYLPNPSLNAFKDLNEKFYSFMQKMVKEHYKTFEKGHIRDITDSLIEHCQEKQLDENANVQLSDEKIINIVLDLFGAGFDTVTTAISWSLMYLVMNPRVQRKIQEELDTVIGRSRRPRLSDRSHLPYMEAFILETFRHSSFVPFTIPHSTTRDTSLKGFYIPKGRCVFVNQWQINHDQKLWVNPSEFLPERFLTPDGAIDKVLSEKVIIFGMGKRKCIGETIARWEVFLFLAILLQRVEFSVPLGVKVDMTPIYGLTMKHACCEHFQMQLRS
- Protocol: Inhibition of recombinant human CYP1A1 expressed in baker's yeast-derived microsomes (Sacchrosomes) at 10 uM using 7-ethoxyresorufin substrate by EROD assay relative to control
- Test context: probe 7-ethoxyresorufin
All answers are understood in %, so give the number only.

Return reported inhibition at 10 µM; argument: O=C(/C=C/C=C/c1ccc2c(c1)OCO2)N1CCCCC1
42

Return reported inhibition at 10 µM; argument: COc1c(O)cc2oc(-c3ccc(O)cc3)cc(=O)c2c1O
86

Return reported inhibition at 10 µM; argument: COc1c2ccoc2cc2oc(=O)ccc12
68

Return reported inhibition at 10 µM; argument: COc1cc2ccc(=O)oc2c2ccoc12
67

Return reported inhibition at 10 µM; argument: COc1c2occc2c(OC)c2c(=O)cc(C)oc12
92

Return reported inhibition at 10 µM; argument: CCOc1c2occc2cc2ccc(=O)oc12
89

Return reported inhibition at 10 µM; argument: CC(C)=CCOc1c2occc2cc2ccc(=O)oc12
71

###

- Target of assay: UniProt Q16678
- Sequence (Q16678 whole entry): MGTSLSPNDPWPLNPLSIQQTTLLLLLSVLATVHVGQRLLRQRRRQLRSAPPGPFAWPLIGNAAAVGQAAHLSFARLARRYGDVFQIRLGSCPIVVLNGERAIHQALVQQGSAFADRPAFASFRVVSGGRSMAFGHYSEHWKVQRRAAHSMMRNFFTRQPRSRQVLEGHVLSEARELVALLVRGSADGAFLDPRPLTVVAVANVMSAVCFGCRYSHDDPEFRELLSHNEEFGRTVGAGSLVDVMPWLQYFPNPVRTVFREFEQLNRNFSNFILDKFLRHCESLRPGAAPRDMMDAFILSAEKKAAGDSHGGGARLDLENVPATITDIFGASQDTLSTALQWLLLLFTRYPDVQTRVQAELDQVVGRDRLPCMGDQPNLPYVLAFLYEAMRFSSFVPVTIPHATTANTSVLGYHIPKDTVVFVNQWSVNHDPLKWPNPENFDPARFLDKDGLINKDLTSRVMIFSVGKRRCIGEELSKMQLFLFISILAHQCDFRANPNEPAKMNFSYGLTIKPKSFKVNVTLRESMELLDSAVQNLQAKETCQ
- Protocol: Inhibition of recombinant human CYP1B1 expressed in baker's yeast-derived microsomes (Sacchrosomes) at 10 uM using 7-ethoxyresorufin substrate by EROD assay relative to control
- Type: ADME
- Test context: probe 7-ethoxyresorufin
Please provide measured inhibition at 10 µM for the entries that follow.
All answers are understood in %, so give the number only.

Return reported inhibition at 10 µM; argument: COc1c2ccoc2cc2oc(=O)ccc12
20

Return reported inhibition at 10 µM; argument: Nc1nccc(-c2c[nH]c3ccc(Br)cc23)n1
7

Return reported inhibition at 10 µM; argument: CC1=CC(=O)c2c(O)cccc2C1=O
40

Return reported inhibition at 10 µM; argument: COc1c2occc2c(OC)c2c(=O)cc(C)oc12
5

Return reported inhibition at 10 µM; argument: COc1ccc2c(c1OC)C(OC)N(C)c1c-2ccc2cc3c(cc12)OCO3 (stereo unspecified)
10

Return reported inhibition at 10 µM; argument: O=c1cc(-c2ccccc2)oc2c1ccc1ccccc12
96

###

- Target of assay: Cytochrome P450 1A1 (Homo sapiens, UniProt P04798)
- Protocol: Inhibition of human recombinant CYP1A1 expressed in HEK293 cells using 7-ethoxyresorufin substrate preincubated for 30 mins followed by substrate addition and measured after 60 mins by fluorescence assay relative to control
- Format: cell-based
Please provide measured IC50 for the entries that follow.
Give the figure together with its unit, number first.

Return reported IC50; argument: COc1c2ccoc2cc2oc(=O)ccc12 [BERGAPTEN]
80 nM

Return reported IC50; argument: COc1c2occc2c(OC)c2c(=O)cc(C)oc12 [KHELLIN]
4020 nM

Return reported IC50; argument: COc1ccc(-c2cc(=O)c3c(O)c(OC)c(OC)cc3o2)cc1OC
1380 nM

Return reported IC50; argument: Nc1nccc(-c2c[nH]c3ccc(Br)cc23)n1 [MERIDIANIN C]
9230 nM

###

- Target of assay: Cytochrome P450 1A1 (Homo sapiens, UniProt P04798)
- Protocol: Inhibition of human recombinant CYP1A1 expressed in HEK293 cells using 7-ethoxyresorufin substrate preincubated for 30 mins followed by substrate addition and measured after 60 mins by fluorescence assay relative to control
Measured property: Ki
Give the figure together with its unit, number first.

Return reported Ki; argument: COc1c(C(=O)CC(=O)c2ccccc2)ccc2occc12
1.96 µM

Return reported Ki; argument: COc1c2ccoc2c(OC)c2oc(=O)ccc12 [ISOPIMPINELLIN]
0.012 µM

Return reported Ki; argument: COc1c2occc2c(OC)c2c(=O)cc(C)oc12 [KHELLIN]
3.8 µM

Return reported Ki; argument: O=C1C=CC(=O)c2c(O)ccc(O)c21 [NAPHTHAZALIN]
3.66 µM

Return reported Ki; argument: Nc1nccc(-c2c[nH]c3ccc(Br)cc23)n1 [MERIDIANIN C]
9.48 µM

Return reported Ki; argument: COc1c2ccoc2cc2oc(=O)ccc12 [BERGAPTEN]
0.06 µM

Return reported Ki; argument: COc1c2ccoc2c(OCC=C(C)C)c2oc(=O)ccc12 [PHELLOPTERIN]
0.62 µM

Return reported Ki; argument: CC1=CC(=O)c2c(O)cccc2C1=O [PLUMBAGIN]
2.56 µM

Return reported Ki; argument: COc1ccc(-c2cc(=O)c3c(O)c(OC)c(OC)cc3o2)cc1OC
1.42 µM

Return reported Ki; argument: COc1ccc2c(c1OC)C(OC)N(C)c1c-2ccc2cc3c(cc12)OCO3 (stereo not given)
3.25 µM

Hello, the source for this data is ChEMBL document CHEMBL4257453, in case you need it.
